Biological target: CYP2C8 (Homo sapiens, UniProt P10632)
Sequence (P10632 whole entry): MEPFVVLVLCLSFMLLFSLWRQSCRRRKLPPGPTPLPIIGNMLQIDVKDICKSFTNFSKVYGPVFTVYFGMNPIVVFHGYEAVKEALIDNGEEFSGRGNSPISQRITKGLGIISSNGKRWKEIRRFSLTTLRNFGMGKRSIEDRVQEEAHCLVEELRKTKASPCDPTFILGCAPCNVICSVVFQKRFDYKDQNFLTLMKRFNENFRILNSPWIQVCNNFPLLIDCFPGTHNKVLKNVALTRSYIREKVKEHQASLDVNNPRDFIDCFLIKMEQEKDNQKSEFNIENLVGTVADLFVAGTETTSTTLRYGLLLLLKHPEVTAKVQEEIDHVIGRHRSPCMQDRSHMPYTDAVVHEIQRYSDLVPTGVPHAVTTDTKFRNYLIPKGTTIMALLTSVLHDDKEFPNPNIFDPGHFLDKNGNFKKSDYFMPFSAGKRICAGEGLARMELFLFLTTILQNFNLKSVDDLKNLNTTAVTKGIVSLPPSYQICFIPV
Details: pH 7.4
Experimental Endpoint: IC50 (µM)
Just the number please, in µM, no unit attached.

I am curious: what IC50 value has been reported for `O=c1c(O)c(-c2ccc(O)c(O)c2)oc2cc(O)cc(O)c12` ? 3
